Molecular target: UniProt Q9H244
Sequence (Q9H244 whole entry): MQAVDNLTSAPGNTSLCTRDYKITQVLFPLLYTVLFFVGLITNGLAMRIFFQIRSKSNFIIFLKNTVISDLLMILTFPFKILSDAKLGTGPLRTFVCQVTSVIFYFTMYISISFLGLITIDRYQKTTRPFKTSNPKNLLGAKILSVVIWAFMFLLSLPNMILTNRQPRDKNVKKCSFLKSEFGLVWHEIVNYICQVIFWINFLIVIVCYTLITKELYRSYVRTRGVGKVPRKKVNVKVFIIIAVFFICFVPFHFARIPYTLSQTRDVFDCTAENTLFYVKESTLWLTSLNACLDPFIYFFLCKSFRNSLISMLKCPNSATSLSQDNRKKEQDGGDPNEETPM
Experiment: [33P]-2MeS-ADP binding to recombinant human P2Y12 membranes (Assay 3)
Set-up: expressed in transfected cells; host or cells: HEK cells
Settings: at highest concentration tested, 10 μM
Readout Kind: inhibition at 10 µM (%)

INSERT INTO measurements (compound, readout_kind, scale_unit, readout_number) VALUES
  ('CCc1cc2c(N3CCN(C(=O)c4csc(-c5ccccc5)n4)CC3)nc(SCC(=O)OC)nc2s1 [Example 69]', 'inhibition at 10 µM', '%', 56.8),
  ('CCc1cc2c(N3CCN(C(=O)c4ccc(-c5ccccc5)cc4)CC3)nc(SCC(N)=O)nc2s1 [Example 31]', 'inhibition at 10 µM', '%', 99.7),
  ('CCc1cc2c(N3CCN(C(=O)Cc4ccccc4)CC3)nc(SCCN(C)C)nc2s1 [Example 88]', 'inhibition at 10 µM', '%', 94.1),
  ('CCc1cc2c(N3CCN(C(=O)c4ccc5[nH]ccc5c4)CC3)nc(SCC(=O)OC)nc2s1 [Example 62]', 'inhibition at 10 µM', '%', 50.9),
  ('CCc1cc2c(N3CCN(C(=O)c4cc(F)cc(F)c4)CC3)nc(SCC(=O)OC)nc2s1 [Example 51]', 'inhibition at 10 µM', '%', 74.2),
  ('CCc1cc2c(N3CCN(C(=O)c4cccc(C)c4)CC3)nc(SCC(=O)OC)nc2s1 [Example 61]', 'inhibition at 10 µM', '%', 78.5),
  ('CCc1cc2c(N3CCN(C(=O)C4COc5ccccc5O4)CC3)nc(SCC(=O)OC)nc2s1 (stereo not shown) [Example 38]', 'inhibition at 10 µM', '%', 77.2),
  ('CCc1cc2c(N3CCN(C(=O)Cc4ccccc4)CC3)nc(SCC(C)O)nc2s1 (stereo not shown) [Example 17]', 'inhibition at 10 µM', '%', 90.6),
  ('CCc1cc2c(N3CCN(C(=O)c4ccc5nccnc5c4)CC3)nc(SCC(=O)OC)nc2s1 [Example 77]', 'inhibition at 10 µM', '%', 63.4),
  ('CCc1cc2c(N3CCN(C(=O)c4ccc5cc[nH]c5c4)CC3)nc(SCC(=O)OC)nc2s1 [Example 63]', 'inhibition at 10 µM', '%', 68.1),
  ('CCc1cc2c(N3CCN(C(=O)Cc4ccccc4)CC3)nc(SC(C)C(C)=O)nc2s1 (stereo not shown) [Example 14]', 'inhibition at 10 µM', '%', 89.9),
  ('CCc1cc2c(N3CCN(C(=O)c4cc(F)ccc4F)CC3)nc(SCC(=O)OC)nc2s1 [Example 53]', 'inhibition at 10 µM', '%', 68.8),
  ('CCCCOc1ccc(C(=O)N2CCN(c3nc(SCC(=O)OC)nc4sc(CC)cc34)CC2)cc1 [Example 73]', 'inhibition at 10 µM', '%', 82),
  ('CCc1cc2c(N3CCN(C(=O)c4ccc(-c5ccccc5)cc4)CC3)nc(Cl)nc2s1 [Example 21]', 'inhibition at 10 µM', '%', 95.8),
  ('CCc1cc2c(N3CCN(C(=O)CCCC(=O)OC)CC3)nc(SCC(=O)OC)nc2s1 [Example 41]', 'inhibition at 10 µM', '%', 71.6),
  ('CCc1cc2c(N3CCN(C(=O)CC(C)CC(C)(C)C)CC3)nc(SCC(=O)OC)nc2s1 (stereo not shown) [Example 39]', 'inhibition at 10 µM', '%', 43.1);
